System: Lolium multiflorum (LOLMU)
experimental details: Herbicidal post-emergence action
Assay type: in vivo
measurement setup: 1280 g/ha, assessed after ca. 3 weeks
Post-emergence activity against LOLMU listing for selected compounds.

{"compound": "CC[C@H](C)[C@H](NC(=O)CC1CCC(=O)N1Cc1cccc(F)c1F)C(=O)O (single isomer, unassigned) [Example I-011]", "Post-emergence activity against LOLMU [%]": 90}
{"compound": "Cc1nonc1NC(=O)CC1CCC(=O)N1Cc1cccc(F)c1F (stereo not drawn) [Example I-046]", "Post-emergence activity against LOLMU [%]": 80}
{"compound": "CS(=O)(=O)NC(=O)CC1CCC(=O)N1Cc1cccc(F)c1F (racemic) [Example I-012]", "Post-emergence activity against LOLMU [%]": 90}
{"compound": "COC(=O)CC1CCC(=O)N1Cc1cccc(F)c1F (racemic) [Example I-008]", "Post-emergence activity against LOLMU [%]": 80}
{"compound": "O=C(CC1CCC(=O)N1Cc1cccc(F)c1F)NS(=O)(=O)C(F)(F)F (racemic) [Example I-052]", "Post-emergence activity against LOLMU [%]": 80}
{"compound": "CS(=O)(=O)CCOC(=O)CC1CCC(=O)N1Cc1cccc(F)c1F (racemic) [Example I-009]", "Post-emergence activity against LOLMU [%]": 90}

---

Some molecules, each annotated with its measured Pre-emergence activity against AVEFA.
System: Avena fatua (AVEFA)
experimental details: Herbicidal pre-emergence action
Format: in vivo
measurement setup: 1280 g/ha, graded after ca. 3 weeks
measured metric: Pre-emergence activity against AVEFA (%)

{"molecule": "COc1ccc(SCCOC(=O)CC2CCC(=O)N2Cc2cccc(F)c2F)cc1 (racemic)", "subject of test": "Avena fatua (AVEFA)", "measured metric": "Pre-emergence activity against AVEFA", "readout value": 90}
{"molecule": "COCC(=O)CC(=O)CNC(=O)CC1CCC(=O)N1Cc1cccc(F)c1F (racemic)", "subject of test": "Avena fatua (AVEFA)", "measured metric": "Pre-emergence activity against AVEFA", "readout value": 100}
{"molecule": "Cc1ccc(CN2C(=O)CCC2CC(=O)O)c(F)c1F (racemic)", "subject of test": "Avena fatua (AVEFA)", "measured metric": "Pre-emergence activity against AVEFA", "readout value": 100}
{"molecule": "CCOC(=O)CC1CCC(=O)N1Cc1cccc(F)c1F (racemic)", "subject of test": "Avena fatua (AVEFA)", "measured metric": "Pre-emergence activity against AVEFA", "readout value": 100}
{"molecule": "O=C(O)CC1CCC(=O)N1Cc1cccc(Cl)c1F (racemic)", "subject of test": "Avena fatua (AVEFA)", "measured metric": "Pre-emergence activity against AVEFA", "readout value": 100}
{"molecule": "O=C(CC1CCC(=O)N1Cc1cccc(F)c1F)OCCS(=O)(=O)c1ccccc1 (racemic)", "subject of test": "Avena fatua (AVEFA)", "measured metric": "Pre-emergence activity against AVEFA", "readout value": 100}
{"molecule": "CC(C)S(=O)(=O)NC(=O)CC1CCC(=O)N1Cc1cccc(F)c1F (racemic)", "subject of test": "Avena fatua (AVEFA)", "measured metric": "Pre-emergence activity against AVEFA", "readout value": 80}
{"molecule": "Cn1nnnc1NC(=O)CC1CCC(=O)N1Cc1cccc(F)c1F (racemic)", "subject of test": "Avena fatua (AVEFA)", "measured metric": "Pre-emergence activity against AVEFA", "readout value": 100}
{"molecule": "O=C(CC1CCC(=O)N1Cc1cccc(F)c1F)OCCOc1ccc(F)cc1 (racemic)", "subject of test": "Avena fatua (AVEFA)", "measured metric": "Pre-emergence activity against AVEFA", "readout value": 100}
{"molecule": "O=C(CC1CCC(=O)N1Cc1cccc(F)c1F)NC(Cc1c[nH]c2ccccc12)C(=O)O (mixture of isomers)", "subject of test": "Avena fatua (AVEFA)", "measured metric": "Pre-emergence activity against AVEFA", "readout value": 80}
{"molecule": "O=C(CC1CCC(=O)N1Cc1cccc(F)c1F)OCC[S+]([O-])c1ccc(Cl)cc1 (racemic)", "subject of test": "Avena fatua (AVEFA)", "measured metric": "Pre-emergence activity against AVEFA", "readout value": 100}
